System: 855422-203-R-J1-PDC complex spheroids, viability;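 further: spheroids exposed to drugs for seven days before readout; 100% = DMSO vehicle control wells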
test-summary: Anticancer human tumor 855422-203-R-J1-PDC patient-derived bladder carcinoma cell line growth inhibition [CLK]
assay-conditions: second compound 3.16 µM; first compound 10 µM; active compounds read low
Text: A high-throughput screen of multi-cell type tumor spheroids was designed to identify active combinations of […] and targeted small molecules. Complex spheroids include a stromal component modeled by human endothelial cells (HUVEC) and fibroblasts modeled by human mesenchymal stem cells (MSCs). […] Compounds. […] If the clinical Cmax for an agent had not been determined, the highest concentration tested was 10 microM. […]

molecule	study-target	viability, T/C, %
COc1cccc2c1C(=O)c1c(O)c3c(c(O)c1C2=O)CC(O)(C(=O)CO)CC3OC1CC(N)C(O)C(C)O1 (centres undefined) + CN1CCN(c2cc(C(=O)Nc3cc4cc(-c5cnn(C)c5)ccc4cn3)ccn2)CC1	855422-203-R-J1-PDC complex spheroids, viability	0.22
Nc1ccn(C2OC(CO)C(O)C2(F)F)c(=O)n1 (centres undefined) + CN1CCN(c2cc(C(=O)Nc3cc4cc(-c5cnn(C)c5)ccc4cn3)ccn2)CC1	855422-203-R-J1-PDC complex spheroids, viability	0.29
C=CC(=O)N1CCN(c2nc(=O)n(-c3c(C)ccnc3C(C)C)c3nc(-c4c(O)cccc4F)c(F)cc23)C(C)C1 (centres undefined) + CN1CCN(c2cc(C(=O)Nc3cc4cc(-c5cnn(C)c5)ccc4cn3)ccn2)CC1	855422-203-R-J1-PDC complex spheroids, viability	1.14
CC1COCCN1c1cc(C2(S(C)(=N)=O)CC2)nc(-c2ccnc3[nH]ccc23)n1 (centres undefined) + CN1CCN(c2cc(C(=O)Nc3cc4cc(-c5cnn(C)c5)ccc4cn3)ccn2)CC1	855422-203-R-J1-PDC complex spheroids, viability	0.37
